experimentalTarget: CFTR ΔF508 (Homo sapiens, UniProt P13569, DEL508-508)
Construct: bronchial epithelial cells isolated from CF patients homozygous for the CFTR ΔF508 mutation; McGill University; Asterand; University of North Carolina hAEC-CF; host or cells: primary human bronchial epithelial cells from CF patients homozygous for ΔF508, differentiated at air-liquid interface
Sequence (P13569 with tags, fused parts or gaps DEL508-508): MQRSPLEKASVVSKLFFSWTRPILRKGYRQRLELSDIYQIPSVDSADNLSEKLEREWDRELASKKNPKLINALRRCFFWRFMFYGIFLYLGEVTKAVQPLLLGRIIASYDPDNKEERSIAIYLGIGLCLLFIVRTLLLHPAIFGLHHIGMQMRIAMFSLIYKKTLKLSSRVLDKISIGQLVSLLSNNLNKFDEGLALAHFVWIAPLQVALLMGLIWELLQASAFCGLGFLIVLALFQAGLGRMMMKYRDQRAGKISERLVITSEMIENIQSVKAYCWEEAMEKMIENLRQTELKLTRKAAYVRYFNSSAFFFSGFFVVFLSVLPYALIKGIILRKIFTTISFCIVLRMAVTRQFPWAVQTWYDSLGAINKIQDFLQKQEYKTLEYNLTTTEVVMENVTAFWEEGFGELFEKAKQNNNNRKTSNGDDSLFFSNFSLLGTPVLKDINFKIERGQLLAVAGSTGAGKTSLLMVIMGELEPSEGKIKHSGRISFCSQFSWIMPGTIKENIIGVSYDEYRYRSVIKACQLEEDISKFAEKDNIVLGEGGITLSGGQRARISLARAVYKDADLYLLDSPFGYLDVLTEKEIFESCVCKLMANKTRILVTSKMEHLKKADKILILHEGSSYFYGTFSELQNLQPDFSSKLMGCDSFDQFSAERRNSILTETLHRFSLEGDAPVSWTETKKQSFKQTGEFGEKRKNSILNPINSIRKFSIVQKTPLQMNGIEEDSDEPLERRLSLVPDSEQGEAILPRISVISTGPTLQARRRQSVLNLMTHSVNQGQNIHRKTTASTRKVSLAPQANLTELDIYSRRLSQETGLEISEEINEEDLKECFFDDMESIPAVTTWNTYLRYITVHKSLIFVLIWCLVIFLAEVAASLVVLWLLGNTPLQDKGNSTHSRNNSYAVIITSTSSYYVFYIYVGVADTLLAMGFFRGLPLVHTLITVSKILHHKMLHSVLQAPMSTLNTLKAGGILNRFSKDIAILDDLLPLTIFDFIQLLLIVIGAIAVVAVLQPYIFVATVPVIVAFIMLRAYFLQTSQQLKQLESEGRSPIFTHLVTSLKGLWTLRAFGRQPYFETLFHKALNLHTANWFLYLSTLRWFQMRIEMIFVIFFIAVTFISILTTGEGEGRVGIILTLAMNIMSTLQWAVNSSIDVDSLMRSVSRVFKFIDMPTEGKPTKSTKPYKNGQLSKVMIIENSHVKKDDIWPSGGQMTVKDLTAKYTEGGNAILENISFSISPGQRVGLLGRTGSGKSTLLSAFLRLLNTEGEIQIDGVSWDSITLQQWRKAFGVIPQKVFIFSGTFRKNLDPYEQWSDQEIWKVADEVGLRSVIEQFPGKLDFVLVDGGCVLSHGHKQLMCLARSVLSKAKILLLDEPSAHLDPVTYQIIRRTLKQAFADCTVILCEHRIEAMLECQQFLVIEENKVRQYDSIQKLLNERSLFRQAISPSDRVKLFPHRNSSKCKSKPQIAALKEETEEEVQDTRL
testMethodNotes: Chronic TECC assay, primary bronchial epithelial cells of CF patients homozygous for CFTR ΔF508 (corrector, co-corrector and potentiator)
Type: cell-based
conditionSummary: chronic TECC; test compound at 1 μM; AUC = full area under the curve upon forskolin stimulation
parameterMeasured: % Activity at 1 μM (AUC**) (%)
Quick note: give the figure in %, leave out the unit.

CS(=O)(=O)NC(=O)c1cc(OCC2CCC(F)(F)C2)c2c(C3CCC3)nn(-c3ccccc3)c2n1 (centres unmarked) | 521.96
COCC1(OC)CCN(c2cc(C(=O)NS(C)(=O)=O)nc3c2c(C2CCC2)nn3-c2ccccc2)CC1 | 422.93
CC(C)N(CCOc1cc(C(=O)NS(C)(=O)=O)nc2c1c(C1CCC1)nn2-c1ccccc1)C1COC1 | 317.57
CC(C)N1CCC2CN(c3cc(C(=O)NS(=O)(=O)N(C)C)nc4c3c(C3CCC3)nn4-c3ccc(F)cc3)CCC21 (centres unmarked) | 403.3333
COCCS(=O)(=O)NC(=O)c1cc(-c2ccc(CN3CCOCC3)cc2)c2c(OC(C)C)nn(C3CCCCC3)c2n1 | 323.3333
COCC1CN(c2cc(C(=O)NS(C)(=O)=O)nc3c2c(C2CCC2)nn3-c2ccccc2)C1 | 317.57
CC(C)Oc1nn(C2CCCCC2)c2nc(C(=O)NS(=O)(=O)N(C)C)cc(-c3ccc(CN4CCOCC4)cc3)c12 | 235
COCC1CCN(c2cc(C(=O)NS(=O)(=O)c3cnn(C)c3)nc3c2c(C2CCC2)nn3-c2ccccc2)CC1 | 628.25

Per the records, this molecule ( COCCS(=O)(=O)NC(=O)c1cc(OCC2(C)COC2)c2c(C3CCC3)nn(-c3ccccc3)c2n1 ) has % Activity at 1 μM (AUC**) equal to 172.35

// CS(=O)(=O)NC(=O)c1cc(OC[C@@H](F)C2CCOCC2)c2c(C3CCC3)nn(-c3ccccc3)c2n1 : % Activity at 1 μM (AUC**) value = 627.48

Quick note, % Activity at 1 μM (AUC**) for CS(=O)(=O)NC(=O)c1cc(N2CCC(OC3CCCCC3)CC2)c2c(C3CCC3)nn(-c3ccccc3)c2n1 landed at 430

# % Activity at 1 μM (AUC**) of COC1CCN(c2cc(C(=O)NS(C)(=O)=O)nc3c2c(C(C)C)nn3-c2cccc(N(C)C)c2)CC1 = 200

// field: % Activity at 1 μM (AUC**); key: CN(C)S(=O)(=O)NC(=O)c1cc(N2CCC(N3CCOCC3)CC2)c2c(C3CCC3)nn(C3CCCCC3)c2n1 ; value = 223.3333

Consider CC(C)N1CCN(c2cc(C(=O)NS(C)(=O)=O)nc3c2c(C2CCC2)nn3-c2ccccc2)CC1 . Its measured % Activity at 1 μM (AUC**) is 250

###

experimentalTarget: ΔF508-CFTR (Homo sapiens, UniProt P13569, DEL508-508)
Construct: host or cells: CFBE41o-, doxycycline-inducible
Sequence (P13569 with tags, fused parts or gaps DEL508-508): as above
testMethodNotes: CFTR cell surface levels using HRP-tagged ΔF508-CFTR expressing CFBE cells, in the presence of a co-corrector
Type: cell-based
conditionSummary: HRP-tagged ΔF508-CFTR CFBE cells, in the presence of 3 μM co-corrector; read-out: EC50
Param label: returns fulfilled when EC50 < 300 nM, returns not fulfilled otherwise, including exact equality.

Check out these entries, answers already filled in.
O=C(NS(=O)(=O)N1CC(F)(F)C1)c1cc(N2CCC(N3CCOCC3)CC2)c2c(C3CCC3)nn(-c3ccc(F)cc3)c2n1 | fulfilled
CS(=O)(=O)NC(=O)c1cc(N2CCC3(CCCCC3)CC2)c2c(C3CCC3)nn(-c3ccccc3)c2n1 | not fulfilled
O=C(NS(=O)(=O)C1CCOC1)c1cc(N2CCN(c3ccncc3)CC2)c2c(C3CCC3)nn(C3CCCCC3)c2n1 (centres unmarked) | not fulfilled
COC1CCN(C2CCN(c3cc(C(=O)NS(C)(=O)=O)nc4c3c(OC(C)C)nn4-c3ccc(F)cc3)CC2)CC1 | fulfilled
CN(C)S(=O)(=O)NC(=O)c1cc(N2CCC(N3CCC(F)(F)CC3)CC2)c2c(C3CCC3)nn(-c3ccc(F)cc3)c2n1 | fulfilled

Qu. Identify whether the compound O=C(NS(=O)(=O)N1CCOCC1)c1cc(N2CCC(N3CCN(C4CC4)CC3)CC2)c2c(C3CCC3)nn(-c3ccccc3)c2n1 records EC50 below 300 nM.
Ans. fulfilled

Qu. Please determine if CC(C)N1CCC(c2cc(C(=O)NS(=O)(=O)N(C)C)nc3c2c(C2CCC2)nn3-c2ccc(F)cc2)CC1 is below 300 nM in terms of EC50.
Ans. not fulfilled

Qu. Here's an entry: CC(C)c1nn(C2CCCCC2)c2nc(C(=O)NS(C)(=O)=O)cc(-c3ccc(N4CCC(F)(F)C4)nc3)c12 . Is its EC50 below 300 nM?
Ans. not fulfilled

Qu. Quick check: does COCC1CCN(c2cc(C(=O)NS(=O)(=O)CCNC(=O)OCc3ccccc3)nc3c2c(C2CCC2)nn3-c2ccccc2)CC1 have EC50 under 300 nM?
Ans. fulfilled

Qu. Consider CS(=O)(=O)NC(=O)c1cc(-c2ccc(N3CCC(C#N)CC3)nc2)c2c(C3CC(F)C3)nn(-c3ccccc3)c2n1 (centres unmarked) . Does its EC50 lie strictly below 300 nM?
Ans. fulfilled

Qu. Please state whether EC50 is below 300 nM for COCC1CCN(c2cc(C(=O)NS(=O)(=O)CCCO)nc3c2c(C2CCC2)nn3-c2ccc(F)cc2)CC1
Ans. fulfilled

Qu. Lab log: compare recorded EC50 with 300 nM; is it strictly lower for COCCN(C)c1cc(C(=O)NS(C)(=O)=O)nc2c1c(C(C)C)nn2-c1cccc(C)c1 ?
Ans. not fulfilled

Qu. Quick check: does CC(C)c1nn(C2CCCCC2)c2nc(C(=O)NS(C)(=O)=O)cc(-c3cnc(N4CCC(C#N)CC4)nc3)c12 have EC50 under 300 nM?
Ans. not fulfilled

###

In this section we review reported % Activation values for a set of compounds.
experimentalTarget: ΔF508-CFTR (Homo sapiens, UniProt P13569, DEL508-508)
Construct: host or cells: CFBE41o-, doxycycline-inducible
testMethodNotes: CFTR cell surface levels using HRP-tagged ΔF508-CFTR expressing CFBE cells, intrinsic corrector capacity
Assay type: cell-based
Set-up: concentration or dose not given beside the values
conditionSummary: HRP-tagged ΔF508-CFTR expressing CFBE41o- cells; compound alone (intrinsic corrector capacity); 20 hours at 33° C.
Source text: Measuring CFTR Cell Surface Levels Using HRP-Tagged ΔF508-CFTR Expressing CFBE Cells The HRP-tagged ΔF508-CFTR cell assay measures the expression of CFTR-ΔF508 at the plasma membrane. […] When HRP-tagged ΔF508-CFTR is present at the plasma membrane, the HRP enzyme activity can be measured. The amount of CFTR-ΔF508 that can be rescued to the plasma membrane is correlated with the amount of functional enzyme that can be measured. […]
Supply the numeric figure in %, leaving out any unit text.

CCS(=O)(=O)NC(=O)c1cc(-c2cnc(N3CCOCC3)nc2)c2c(C(C)C)nn(-c3cccc(N(C)C)c3)c2n1 [Compound 62] | 350.85
Cc1nn(-c2ccccc2)c2nc(C(=O)NS(=O)(=O)C(F)(F)F)cc(-c3ccc(N4CCOCC4)cc3)c12 [Compound 3] | 53.08

Field % Activation (entry COCCS(=O)(=O)NC(=O)c1cc(OCC2(C)COC2)c2c(C3CCC3)nn(-c3ccccc3)c2n1 [Compound 269] ) reads 120.6

Per the records, this compound ( COCCS(=O)(=O)NC(=O)c1cc(N2CCC(CN3CCCC3)CC2)c2c(C3CCC3)nn(-c3ccccc3)c2n1 [Compound 464] ) has % Activation equal to 277.5

Just so you know, measured % Activation for CC(C)COC1CCN(c2cc(C(=O)NS(C)(=O)=O)nc3c2c(C(C)C)nn3-c2ccc(F)cc2)CC1 [Compound 175] came out at 270.5

So, COC1CCN(c2ccc(-c3cc(C(=O)NS(C)(=O)=O)nc4c3c(C(C)C)nn4C3CCCCC3)cn2)C1 (stereo not shown) [Compound 106] ? Its % Activation was 162.75

Measured % Activation of CCS(=O)(=O)NC(=O)c1cc(-c2ccc(OC)cc2)c2c(C)nn(-c3cccc(C)c3)c2n1 [Compound 28] : 149.7

###

experimentalTarget: ΔF508-CFTR (Homo sapiens, UniProt P13569, DEL508-508)
Construct: host or cells: CFBE41o-, doxycycline-inducible
testMethodNotes: CFTR cell surface levels using HRP-tagged ΔF508-CFTR expressing CFBE cells, in the presence of a co-corrector
Format: cell-based
conditionSummary: HRP-tagged ΔF508-CFTR CFBE cells, in the presence of 3 μM co-corrector; read-out: EC50
parameterMeasured: pEC50
Note: pEC50 values are expressed as the negative base-10 logarithm of concentration in M.

Consider the worked cases shown below.
CS(=O)(=O)NC(=O)c1cc(N2CCC(N3CCOCC3)CC2)c2c(C3CCC3)nn(-c3cccc(F)c3)c2n1 | 7.28
COCC1(OC)CCN(c2cc(C(=O)NS(C)(=O)=O)nc3c2c(C2CCC2)nn3-c2ccccc2)CC1 | 6.66
CN(C1CCOCC1)S(=O)(=O)NC(=O)c1cc(N2CCC(N3CCOCC3)CC2)c2c(C3CCC3)nn(-c3ccc(F)cc3)c2n1 | 6.50

Please find the next molecule below.
// pEC50 lookup, molecule = CC(C)c1nn(-c2cccc(N(C)C)c2)c2nc(C(=O)NS(=O)(=O)CCCN=[N+]=[N-])cc(-c3ccc(N=[N+]=[N-])cc3)c12 , result: 7.00
